tested on: Malme-3M; test: NCI tumour cell line growth inhibition, 48 h
Counter-ions that a name gives are not always drawn. Calls of active or inactive are those of the source. No stated cut-off is given here; in the data, active = GI50 up to about 1.1 µM and inactive = higher.
quantity.name: GI50

INSERT INTO assay_data (compound, quantity_name, data_value) VALUES
  ('CCOC(=O)c1c(N2CCOCC2)[nH]c(=O)c(C(c2ccc(Cl)c([N+](=O)[O-])c2)c2c(O)c(C(=O)OCC)c(N3CCOCC3)[nH]c2=O)c1O', 'GI50', '41.4 µM (inactive)'),
  ('COC(=O)c1c(C)cccc1C1CN=NC12Cc1ccc(C)cc1C2=O (configuration not stated)', 'GI50', '33.2 µM (inactive)'),
  ('CNC(=O)C1CCCN1C(=O)C(Cc1c[nH]cn1)NC(=O)C1CCC(=O)N1 (configuration not stated)', 'GI50', '> 100 µM (inactive)'),
  ('CN(C)CCOC(c1ccccc1)c1ccccc1 [DIPHENHYDRAMINE HYDROCHLORIDE]', 'GI50', '> 100 µM (inactive)'),
  ('C[n+]1c(-c2ccc(NC(=O)c3ccc(C(=O)Nc4ccc(-c5cn6ccccc6[n+]5C)cc4)cc3)cc2)cn2ccccc21', 'GI50', '56.5 µM (inactive)'),
  ('c1ccc(-c2cc(-c3cc(-c4ccccc4)[nH]n3)[nH]n2)cc1', 'GI50', '> 100 µM (inactive)'),
  ('COC(CNC(=O)C(C)NC(=O)/C=C/c1ccccc1)OC (configuration not stated)', 'GI50', '> 100 µM (inactive)'),
  ('c1ccc(-c2nn(-c3ccccc3)[n+](-c3ccccc3)n2)cc1 [TETRAZOLIUM RED]', 'GI50', '0.394 µM (active)'),
  ('CC#C[I+]c1ccccc1', 'GI50', '18.9 µM (inactive)'),
  ('OC12CC3c4ccccc4NC3C3Oc4cccc5c4C31CCN(CC1CC1)C2C5 (configuration not stated)', 'GI50', '19.7 µM (inactive)'),
  ('O=C1c2ccccc2C(=O)c2c1ccc1c3ccccc3n(Cc3ccccc3)c21', 'GI50', '> 100 µM (inactive)'),
  ('COCCNC1CCC(=O)c2[nH]c3ccccc3c21 (configuration not stated)', 'GI50', '> 100 µM (inactive)'),
  ('COCOc1ccc(C(=O)C(C)c2ccc(OCOC)cc2OCOC)c(O)c1 (configuration not stated)', 'GI50', '> 100 µM (inactive)'),
  ('COc1cc2c(oc(=O)c3c4occc4cc(OC)c23)c2cccc(O)c12', 'GI50', '> 100 µM (inactive)'),
  ('O=C(CC1(O)C(=O)Nc2ccccc21)c1ccccc1O (configuration not stated)', 'GI50', '> 100 µM (inactive)'),
  ('c1ccc(/N=c2/sc3ccccc3s/c2=N/c2ccccc2)cc1', 'GI50', '1.86 µM (inactive)'),
  ('O=C(Nc1nncs1)NS(=O)(=O)n1c(=S)sc2ccccc21', 'GI50', '> 100 µM (inactive)');

---

test system: SNB-75; assay: NCI tumour cell line growth inhibition, 48 h
Calls of active or inactive are those of the source. Cut-off read from the data, not from the text of the source: active = GI50 up to about 1.1 µM and inactive = higher.
quantity.name: GI50

INSERT INTO measurements (compound, assay_target, data_value) VALUES
  ('CC(C)C(Sc1nc(N)nc2nc[nH]c12)C(=O)O (stereo not given)', 'SNB-75', '> 100 µM (inactive)'),
  ('CN1CCN([C@H]2C[C@H]3[C@@H]4CC=C5C[C@@H](N6CCCC6)CC[C@]5(C)[C@H]4CC[C@]3(C)[C@H]2O)CC1', 'SNB-75', '> 100 µM (inactive)'),
  ('CC1=CCCC(C)(O)C2CC(CCC3(C)OC3CC1)C(C)C(=O)O2 (stereo not given)', 'SNB-75', '> 100 µM (inactive)'),
  ('N#CC(c1ccc(Cl)cc1)c1cccc(C(C#N)c2ccc(Cl)cc2)n1 (stereo not given)', 'SNB-75', '15.9 µM (inactive)'),
  ('CC(C#N)Nc1ccc(Oc2ccc(C(C)(C)c3ccc(Oc4ccc(NC(C)C#N)cc4)cc3)cc2)cc1 (stereo not given)', 'SNB-75', '92.5 µM (inactive)'),
  ('CCOC(=O)C(C)(c1c(C)[nH]c2ccccc12)c1c(C)[nH]c2ccccc12', 'SNB-75', '17.6 µM (inactive)'),
  ('C(=N\NC1=NCCCN1)/c1ccc(-c2cn3cc(/C=N/NC4=NCCCN4)ccc3n2)cc1', 'SNB-75', '> 81.5 µM (inactive)'),
  ('CC1(C)O[C@@H](CCl)C[C@@H](C#N)O1', 'SNB-75', '> 100 µM (inactive)'),
  ('O=c1[nH]c2nc3ccccc3c(=O)n2/c1=C/c1cccs1', 'SNB-75', '20.5 µM (inactive)'),
  ('CC(=O)NCC1(c2ccccc2)CCN(CC2COc3ccccc3O2)CC1 (stereo not given) [ACOXATRINE]', 'SNB-75', '> 100 µM (inactive)');
